tested on: Candida krusei E28; experiment: Antifungal microdilution broth method, C. krusei; format: cell-based; conditions: Pichia kudriavzevii, 24 h, read-out: MIC CK 24 h

{"columns": ["CHEMICAL_STRING", "VALUE_QUALIFIER", "MIC / µM"],
 "data": [
  ["Nc1ccc(C(=O)O)cc1", ">", 500],
  ["O=C(O)c1ccc(N=Cc2cc(Cl)ccc2O)cc1", "=", 125],
  ["Cc1ccc(O)c(C=Nc2ccc(C(=O)O)cc2)c1", ">", 125],
  ["O=C(O)c1ccc(N=Cc2cc([N+](=O)[O-])ccc2O)cc1", ">", 500],
  ["O=C(O)c1ccc(N=Cc2cc(Br)ccc2O)cc1", "=", 125],
  ["CC(C)(C)c1ccc(O)c(C=Nc2ccc(C(=O)O)cc2)c1", ">", 500],
  ["O=C(O)c1ccc(N=Cc2cc(I)cc(I)c2O)cc1", "=", 31.2],
  ["O=C(O)c1ccc(N=Cc2c(O)cccc2Cl)cc1", "=", 125],
  ["O=C(O)c1ccc(N=Cc2cc(I)ccc2O)cc1", "=", 62.5],
  ["O=C(O)c1ccc(N=Cc2ccc([N+](=O)[O-])o2)cc1", "=", 62.5],
  ["O=C(O)c1ccc(N=Cc2cc(Cl)cc(Br)c2O)cc1", "=", 62.5],
  ["O=C(O)c1ccc(N=Cc2cc(F)ccc2O)cc1", ">", 500]
]}

----------
tested on: Klebsiella pneumoniae D 11750/08; experiment: Antibacterial microdilution broth method, K. pneumoniae; details: K. pneumoniae D 11750/08; 24 h incubation
Catalogue of MIC KP 24 h readings, one per entry.
REPORTED_PROPERTY: MIC KP 24 h

{"columns": ["MOLECULE", "REPORTED_PROPERTY", "RESULT"],
 "data": [
  ["COc1ccccc1C=Nc1ccc(C(=O)O)cc1 [1s]", "MIC KP 24 h", ">500 µM"],
  ["O=C(O)c1ccc(N=Cc2ccccc2O)cc1 [1a]", "MIC KP 24 h", ">500 µM"],
  ["O=C(O)c1ccc(N=Cc2cc(Cl)cc(Cl)c2O)cc1 [1n]", "MIC KP 24 h", ">500 µM"],
  ["O=C(O)c1ccc(N=Cc2cc(F)ccc2O)cc1 [1b]", "MIC KP 24 h", ">500 µM"],
  ["O=C(O)c1ccc(N=Cc2cc(Cl)cc(I)c2O)cc1 [1p]", "MIC KP 24 h", "125 µM"],
  ["O=C(O)c1ccc(N=Cc2ccc(O)cc2)cc1 [1t]", "MIC KP 24 h", ">500 µM"],
  ["O=C(O)c1ccc(N=Cc2cccc(Cl)c2O)cc1 [1m]", "MIC KP 24 h", ">500 µM"],
  ["O=C(O)c1ccc(N=Cc2cc(O)ccc2O)cc1 [1i]", "MIC KP 24 h", "500 µM"],
  ["O=C(O)c1ccc(N=Cc2cc(Cl)cc(Br)c2O)cc1 [1o]", "MIC KP 24 h", "500 µM"],
  ["Cc1ccc(O)c(C=Nc2ccc(C(=O)O)cc2)c1 [1g]", "MIC KP 24 h", ">500 µM"]
]}

----------
test system: Pseudomonas aeruginosa ATCC 27853, CCM 3955; assay: Antibacterial microdilution broth method, P. aeruginosa; assay type: cell-based; conditions: Pseudomonas aeruginosa; P. aeruginosa; 24 h incubation; read-out: MIC PA 24 h
Quick list: MIC per entry.
REPORTED_PROPERTY: MIC

{"columns": ["COMPOUND", "RESULT"],
 "data": [
  ["COc1ccc(O)c(C=Nc2ccc(C(=O)O)cc2)c1", "> 500 µM"],
  ["O=C(O)c1ccc(NCc2ccccc2O)cc1 [1u, 4-[(2-Hydroxybenzyl)amino]benzoic acid]", "> 500 µM"],
  ["O=C(O)c1ccc(N=Cc2cccc(Cl)c2O)cc1", "> 500 µM"]
]}

----------
system: Mycobacterium kansasii 235/80; assay: Antimycobacterial micromethod in Šula's medium, M. kansasii 235/80; format: cell-based; details: 235/80, 336 h, 14 days incubation at 37 °C, read-out: MIC M. kansasii 235/80 14 d
The entries below are paired with their reported MIC.

{"columns": ["MOLECULE", "ASSAYED_TARGET", "MIC"],
 "data": [
  ["O=C(O)c1ccc(N=Cc2cc(I)cc(I)c2O)cc1", "Mycobacterium kansasii 235/80", "500 µM"],
  ["O=C(O)c1ccc(N=Cc2cc(O)ccc2O)cc1", "Mycobacterium kansasii 235/80", "500 µM"],
  ["COc1ccc(O)c(C=Nc2ccc(C(=O)O)cc2)c1", "Mycobacterium kansasii 235/80", "500 µM"],
  ["O=C(O)c1ccc(N=Cc2cc(Cl)ccc2O)cc1", "Mycobacterium kansasii 235/80", "250 µM"],
  ["O=C(O)c1ccc(N=Cc2cc(Br)ccc2O)cc1", "Mycobacterium kansasii 235/80", "250 µM"],
  ["O=C(O)c1ccc(NCc2ccccc2O)cc1 [1u, 4-[(2-Hydroxybenzyl)amino]benzoic acid]", "Mycobacterium kansasii 235/80", "1000 µM"],
  ["O=C(O)c1ccc(N=Cc2ccc(O)cc2)cc1", "Mycobacterium kansasii 235/80", "1000 µM"]
]}

----------
Consider the following compounds and their measured MIC readings.
system: Staphylococcus aureus ATCC 29213, CCM 4223; assay: Antibacterial microdilution broth method, S. aureus; type: cell-based; settings: 48 h incubation, read-out: MIC SA 48 h
REPORTED_PROPERTY: MIC

{"columns": ["COMPOUND", "ASSAYED_TARGET", "REPORTED_PROPERTY", "RESULT"],
 "data": [
  ["O=C(O)c1ccc(N=Cc2cc(Cl)cc(I)c2O)cc1 [1p]", "Staphylococcus aureus ATCC 29213, CCM 4223", "MIC", "15.6 µM"],
  ["COc1ccccc1C=Nc1ccc(C(=O)O)cc1 [1s]", "Staphylococcus aureus ATCC 29213, CCM 4223", "MIC", "> 500 µM"],
  ["CC(C)(C)c1ccc(O)c(C=Nc2ccc(C(=O)O)cc2)c1 [1j]", "Staphylococcus aureus ATCC 29213, CCM 4223", "MIC", "> 500 µM"]
]}

----------
Quick reference for MIC among some compounds
system: Staphylococcus epidermidis H 6966/08; experiment: Antibacterial microdilution broth method, S. epidermidis; format: cell-based; conditions: Staphylococcus epidermidis, H6966/08; S. epidermidis; 48 h incubation; read-out: MIC SE 48 h

{"columns": ["CHEMICAL_STRING", "ASSAYED_TARGET", "MIC"],
 "data": [
  ["O=C(O)c1ccc(N=Cc2ccccc2O)cc1", "Staphylococcus epidermidis H 6966/08", "> 500 µM"],
  ["O=C(O)c1ccc(N=Cc2c(O)cccc2Cl)cc1", "Staphylococcus epidermidis H 6966/08", "> 500 µM"],
  ["CC(C)(C)c1ccc(O)c(C=Nc2ccc(C(=O)O)cc2)c1", "Staphylococcus epidermidis H 6966/08", "> 500 µM"]
]}

----------
tested on: Trichosporon asahii 1188; experiment: Antifungal microdilution broth method, T. asahii; format: cell-based; details: 24 h, read-out: MIC TA 24 h
REPORTED_PROPERTY: MIC

{"columns": ["CHEMICAL_STRING", "RESULT"],
 "data": [
  ["O=C(O)c1ccc(N=Cc2cc(Cl)ccc2O)cc1", "> 125 µM"],
  ["O=C(O)c1ccc(N=Cc2cc(O)ccc2O)cc1", "> 500 µM"],
  ["CC(C)(C)c1ccc(O)c(C=Nc2ccc(C(=O)O)cc2)c1", "> 500 µM"],
  ["O=C(O)c1ccc(N=Cc2ccccc2O)cc1", "> 500 µM"]
]}

----------
Item-by-item account of MIC
test system: Staphylococcus epidermidis H 6966/08; experiment: Antibacterial microdilution broth method, S. epidermidis; format: cell-based; conditions: Staphylococcus epidermidis, H6966/08; S. epidermidis; 48 h incubation; read-out: MIC SE 48 h

{"columns": ["COMPOUND", "MIC"],
 "data": [
  ["Nc1ccc(C(=O)O)cc1 [PABA 1, 4-aminobenzoic acid]", "> 500 µM"],
  ["O=C(O)c1ccc(NCc2ccccc2O)cc1 [1u, 4-[(2-Hydroxybenzyl)amino]benzoic acid]", "> 500 µM"],
  ["O=C(O)c1ccc(N=Cc2ccc(O)cc2)cc1 [1t]", "> 500 µM"]
]}

----------
This section presents compounds with their documented MIC values.
tested on: Mycobacterium avium 330/88; assay: Antimycobacterial micromethod in Šula's medium, M. avium; assay type: cell-based; conditions: 330/88, 336 h, 14 days incubation at 37 °C, read-out: MIC M. avium 330/88 14 d

{"columns": ["COMPOUND", "MIC"],
 "data": [
  ["O=C(O)c1ccc(NCc2ccccc2O)cc1 [1u, 4-[(2-Hydroxybenzyl)amino]benzoic acid]", "> 1000 µM"],
  ["Cc1ccc(O)c(C=Nc2ccc(C(=O)O)cc2)c1", "> 1000 µM"],
  ["Nc1ccc(C(=O)O)cc1", "> 1000 µM"],
  ["COc1ccccc1C=Nc1ccc(C(=O)O)cc1", "> 1000 µM"],
  ["NNC(=O)c1ccncc1 [INH, isoniazid, reference compound]", "> 250 µM"],
  ["O=C(O)c1ccc(N=Cc2cc(F)ccc2O)cc1", "> 1000 µM"],
  ["O=C(O)c1ccc(N=Cc2ccc([N+](=O)[O-])o2)cc1", "250 µM"],
  ["O=C(O)c1ccc(N=Cc2ccccc2O)cc1", "> 1000 µM"],
  ["COc1ccc(O)c(C=Nc2ccc(C(=O)O)cc2)c1", "1000 µM"],
  ["O=C(O)c1ccc(N=Cc2c(O)cccc2Cl)cc1", "500 µM"],
  ["O=C(O)c1ccc(N=Cc2ccc(Cl)cc2O)cc1", "1000 µM"]
]}
